Reference for the values: ChEMBL document CHEMBL1134132

Each record here notes measured pKi.
molecular target: Prothrombin (Homo sapiens); assay: Inhibitory activity against thrombin(fIIa) in human plasma
Worth noting: pKi values are minus log10 of concentrations stated in mol/L.

Recorded results for 3 compounds are shown here.
- Cc1cc(C)c(O)c(-c2cc3cc(C(=N)N)ccc3[nH]2)c1: 5.16
- COC(=O)Cc1cc(Br)c(O)c(-c2[nH]c3ccc(C(=N)N)cc3c2Cc2ccccc2)c1: 7.10
- O=C(O)CCc1cc(Br)c(O)c(-c2[nH]c3ccccc3c2Cc2ccccc2)c1: 3.15

Quick note, pKi for `Cc1cc(Br)c(O)c(-c2[nH]c3ccc(C(=N)N)cc3c2CCCc2ccccc2)c1` landed at 5.18

pKi reported for this compound `Cc1cc(-c2ccccc2)c(O)c(-c2cc3cc(C(=N)N)ccc3[nH]2)c1` : 5.40

// sample `N=C(N)c1ccc2[nH]c(-c3cc(Cc4nn[nH]n4)cc(Br)c3O)c(Cc3ccccc3)c2c1` , its pKi was 6.36

Reported pKi of `Cc1cc(Br)c(O)c(-c2[nH]c3ccc(C(=N)N)cc3c2Cc2ccccc2)c1` : 6.59

Just so you know, measured pKi for `NC(=O)c1ccc2[nH]c(-c3cc(CCC(=O)O)cc(Br)c3O)c(Cc3ccccc3)c2c1` came out at 4.11

pKi for `N=C(N)c1ccc2[nH]c(-c3cc(CC(=O)O)cc(Br)c3O)c(Cc3ccccc3)c2c1` is 6.00

###

target: UniProtKB P00734; test: Inhibitory activity against thrombin(fIIa) in human plasma
Attribute: log10(Ki)
Field: value | Transform: log10 | Quantity: Ki | Unit: nM

Use these answered entries as a reference point.
- COc1c(Br)cc(CCC(=O)O)cc1-c1[nH]c2ccc(C(=N)N)cc2c1Cc1ccccc1: 3.40
- N=C(N)c1ccc2[nH]c(-c3cc(CC(N)=O)cc(Br)c3O)c(Cc3ccccc3)c2c1: 1.40
- N=C(N)c1ccc2[nH]c(-c3cc(CCOP(=O)(O)O)cc(Br)c3O)c(Cc3ccccc3)c2c1: 2.52

log10(Ki) reported for this compound `Cc1ccc(O)c(-c2cc3cc(C(=N)N)ccc3[nH]2)c1` : 4.36

log10(Ki) reading for `Cc1cc(Br)c(O)c(-c2cc3cc(C(=N)N)ccc3[nH]2)c1` : 2.56

###

biological target: Coagulation factor X (Homo sapiens, UniProt P00742); test: Inhibitory activity against Coagulation factor X in human plasma
Sequence (P00742 41-179 limits assumed): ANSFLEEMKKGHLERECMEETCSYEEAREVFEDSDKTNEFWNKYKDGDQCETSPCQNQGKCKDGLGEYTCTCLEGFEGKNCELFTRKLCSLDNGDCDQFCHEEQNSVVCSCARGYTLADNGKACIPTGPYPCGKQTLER
Sequence (P00742 235-488 limits assumed): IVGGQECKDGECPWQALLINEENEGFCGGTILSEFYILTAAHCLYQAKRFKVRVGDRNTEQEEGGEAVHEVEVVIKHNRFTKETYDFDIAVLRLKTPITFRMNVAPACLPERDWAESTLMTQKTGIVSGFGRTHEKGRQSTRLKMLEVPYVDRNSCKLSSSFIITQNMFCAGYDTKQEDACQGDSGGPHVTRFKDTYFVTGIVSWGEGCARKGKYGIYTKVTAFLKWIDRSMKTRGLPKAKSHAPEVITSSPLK
parameterMeasured: Ki (nM)
# value in nM; strip the unit string

Example results:
• N=C(N)c1ccc2[nH]c(-c3cc(CCCC(=O)O)cc(Br)c3O)c(Cc3ccccc3)c2c1 = 0.7
• Cc1cc(Br)c(O)c(-c2cc3cc(C(=N)N)ccc3[nH]2)c1 = 100
• Cc1cc(Br)c(O)c(-c2[nH]c3ccc(C(=N)N)cc3c2CCc2ccccc2)c1 = 350
• CN(C)C(=O)Cc1cc(Br)c(O)c(-c2[nH]c3ccc(C(=N)N)cc3c2Cc2ccccc2)c1 = 2
• Cc1cc(-c2ccccc2)c(O)c(-c2cc3cc(C(=N)N)ccc3[nH]2)c1 = 640

Ki reading for `N=C(N)c1ccc2[nH]c(-c3cc(Cc4nn[nH]n4)cc(Br)c3O)c(Cc3ccccc3)c2c1` : 20

Measured Ki, `N=C(N)c1ccc2[nH]c(-c3cc(-c4nn[nH]n4)cc(Br)c3O)c(Cc3ccccc3)c2c1` : 10

// sample `N=C(N)c1ccc2[nH]c(-c3cc(CC(=O)O)cc(Br)c3O)c(Cc3ccccc3)c2c1` , its Ki was 3

Record `N=C(N)c1ccc2[nH]c(-c3cc(CC(N)=O)cc(Br)c3O)c(Cc3ccccc3)c2c1` , field Ki: 2

Noted for `Cc1cc(Br)c(O)c(-c2[nH]c3ccc(C(=N)N)cc3c2CCCc2ccccc2)c1` : its Ki reads 7600

###

molecular target: Serine protease 1 (Homo sapiens); assay: Inhibitory activity against trypsin in human plasma
parameterMeasured: pKi
Keep it numeric: pKi is minus log10 of the concentration in mol/L.

Record excerpt, results attached:
• CC(C)(C(=O)O)c1cc(Br)c(O)c(-c2[nH]c3ccc(C(=N)N)cc3c2Cc2ccccc2)c1 = 5.89
• Cc1cc(C)c(O)c(-c2cc3cc(C(=N)N)ccc3[nH]2)c1 = 5.30
• Cc1cc(Br)c(O)c(-c2cc3cc(C(=N)N)ccc3[nH]2)c1 = 6.19

Value (pKi, Serine protease 1 (Homo sapiens)) for record `N=C(N)c1ccc2[nH]c(-c3cc(C(=O)O)cc(Br)c3O)c(Cc3ccccc3)c2c1` = 6.36

Measured on Serine protease 1 (Homo sapiens), `Cc1ccc(O)c(-c2cc3cc(C(=N)N)ccc3[nH]2)c1` has a documented pKi of 5.09

Entry `N=C(N)c1ccc2[nH]c(-c3cc(CCC(=O)O)cc(Br)c3O)c(Cc3ccccc3)c2c1` : pKi on Serine protease 1 (Homo sapiens) = 6.22

pKi for Serine protease 1 (Homo sapiens) with input `Cc1cc(Br)c(O)c(-c2[nH]c3ccc(C(=N)N)cc3c2CCc2ccccc2)c1` equals 5.47

###

Here's a batch of molecules along with measured pKi for Urokinase-type plasminogen activator (Homo sapiens, UniProt P00749).
A value of pKi is the negative decimal logarithm of a concentration given in moles per litre.

- N=C(N)c1ccc2[nH]c(-c3cc(CCCC(=O)O)cc(Br)c3O)c(Cc3ccccc3)c2c1: 6.57
- Cc1cc(C)c(O)c(-c2cc3cc(C(=N)N)ccc3[nH]2)c1: 5.64
- Cc1cc(Br)c(O)c(-c2[nH]c3ccc(C(=N)N)cc3c2CCCc2ccccc2)c1: 5.07
- Cc1cc(Cl)c(O)c(-c2cc3cc(C(=N)N)ccc3[nH]2)c1: 6.72

Short answer for `N=C(N)c1ccc2[nH]c(-c3cc(Cc4nn[nH]n4)cc(Br)c3O)c(Cc3ccccc3)c2c1` : pKi was 6.46

What the record says about `N=C(N)c1ccc2[nH]c(-c3cc(-c4nn[nH]n4)cc(Br)c3O)c(Cc3ccccc3)c2c1` : pKi is 6.26

The measured pKi associated with `CC(C)(C(=O)O)c1cc(Br)c(O)c(-c2[nH]c3ccc(C(=N)N)cc3c2Cc2ccccc2)c1` reads 6.46

Sure, the documented pKi for `Cc1cc(Br)c(O)c(-c2cc3cc(C(=N)N)ccc3[nH]2)c1` is 6.96

###

Here, each record is paired with measured Ki data.
molecular target: Plasminogen (Homo sapiens, UniProt P00747); assay: Inhibitory activity against plasmin in human plasma
Sequence (P00747 97-580 limits assumed): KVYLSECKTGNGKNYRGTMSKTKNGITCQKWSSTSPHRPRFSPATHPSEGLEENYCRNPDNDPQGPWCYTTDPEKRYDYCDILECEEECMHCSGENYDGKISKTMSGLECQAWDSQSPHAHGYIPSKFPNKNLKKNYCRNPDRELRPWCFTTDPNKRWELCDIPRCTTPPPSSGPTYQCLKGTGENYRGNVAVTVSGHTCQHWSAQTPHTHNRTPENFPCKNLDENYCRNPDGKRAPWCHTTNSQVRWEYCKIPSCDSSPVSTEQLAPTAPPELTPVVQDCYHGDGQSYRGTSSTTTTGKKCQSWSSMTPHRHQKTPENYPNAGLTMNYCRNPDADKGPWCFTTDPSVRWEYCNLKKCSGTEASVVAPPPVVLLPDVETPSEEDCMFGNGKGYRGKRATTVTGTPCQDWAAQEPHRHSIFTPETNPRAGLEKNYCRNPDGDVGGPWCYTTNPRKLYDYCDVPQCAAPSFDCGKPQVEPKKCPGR
Sequence (P00747 581-810 limits assumed): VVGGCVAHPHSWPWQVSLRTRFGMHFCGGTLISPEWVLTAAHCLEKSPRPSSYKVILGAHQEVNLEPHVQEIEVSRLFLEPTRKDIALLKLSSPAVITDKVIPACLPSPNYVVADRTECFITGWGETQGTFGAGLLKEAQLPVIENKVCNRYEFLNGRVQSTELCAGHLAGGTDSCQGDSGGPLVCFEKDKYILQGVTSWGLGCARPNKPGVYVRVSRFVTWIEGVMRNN
// note: answer is a bare numeric in nM

// below: answered compounds
* N=C(N)c1ccc2[nH]c(-c3cc(-c4nn[nH]n4)cc(Br)c3O)c(Cc3ccccc3)c2c1 | 4200
* N=C(N)c1ccc2[nH]c(-c3cc(CC(=O)O)cc(Br)c3O)c(Cc3ccccc3)c2c1 | 1800

Read the next record carefully.
The compound listed as `Cc1cc(Cl)c(O)c(-c2cc3cc(C(=N)N)ccc3[nH]2)c1` shows Ki equal to 1000

###

Recorded pKi values for a group of compounds are listed next.
molecular target: Serine protease 1 (Homo sapiens, UniProt P07477); test: Inhibitory activity against trypsin in human plasma
Sequence (P07477 whole entry): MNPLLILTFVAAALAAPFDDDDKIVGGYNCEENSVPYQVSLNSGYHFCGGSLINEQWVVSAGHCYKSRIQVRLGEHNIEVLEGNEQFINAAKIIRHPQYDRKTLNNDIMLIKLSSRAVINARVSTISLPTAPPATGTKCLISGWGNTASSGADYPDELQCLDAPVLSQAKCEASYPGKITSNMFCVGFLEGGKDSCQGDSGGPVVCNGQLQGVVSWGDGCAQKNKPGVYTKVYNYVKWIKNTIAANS
The meaning of pKi here: minus log10 of the concentration in molar units.

• Cc1cc(-c2ccccc2)c(O)c(-c2cc3cc(C(=N)N)ccc3[nH]2)c1 = 5.74
• Cc1cc(Br)c(O)c(-c2[nH]c3ccc(C(=N)N)cc3c2CCCc2ccccc2)c1 = 4.38
• Cc1cc(Br)c(O)c(-c2[nH]c3ccc(C(=N)N)cc3c2Cc2ccccc2)c1 = 5.62
• N=C(N)c1ccc2[nH]c(-c3cc(-c4nn[nH]n4)cc(Br)c3O)c(Cc3ccccc3)c2c1 = 5.89
• N=C(N)c1ccc2[nH]c(-c3cc(CC(=O)O)cc(Br)c3O)c(Cc3ccccc3)c2c1 = 5.92

Recorded pKi (compound `Cc1cc(Cl)c(O)c(-c2cc3cc(C(=N)N)ccc3[nH]2)c1` ): 6.15

pKi for `N=C(N)c1ccc2[nH]c(-c3cc(CCOP(=O)(O)O)cc(Br)c3O)c(Cc3ccccc3)c2c1` is 5.42

Recorded pKi (compound `N=C(N)c1ccc2[nH]c(-c3cc(CCCC(=O)O)cc(Br)c3O)c(Cc3ccccc3)c2c1` ): 6.21

###

target: Coagulation factor X (Homo sapiens, UniProt P00742); assay: Inhibitory activity against Coagulation factor X in human plasma
So basically: is Ki under 0.01 µM? Then y. Not under? Then n.

- O=C(O)CCc1cc(Br)c(O)c(-c2[nH]c3ccccc3c2Cc2ccccc2)c1: n
- COC(=O)Cc1cc(Br)c(O)c(-c2[nH]c3ccc(C(=N)N)cc3c2Cc2ccccc2)c1: y
- Cc1cc(Br)c(O)c(-c2[nH]c3ccc(C(=N)N)cc3c2Cc2ccccc2)c1: n

Req: Lab note: confirm whether the reported Ki for this compound is below 0.01 µM, equality not counting. compound: `Cc1cc(Cl)c(O)c(-c2cc3cc(C(=N)N)ccc3[nH]2)c1`
Resp: n

Req: Does the reported Ki of `Cc1cc(C)c(O)c(-c2cc3cc(C(=N)N)ccc3[nH]2)c1` stay below 0.01 µM?
Resp: n

Req: Hello, I'm reviewing records and need to know if Ki of `N=C(N)c1ccc2[nH]c(-c3cc(C(=O)O)cc(Br)c3O)c(Cc3ccccc3)c2c1` is below 0.01 µM. Could you check?
Resp: y

Req: # TODO verify Ki < 0.01 µM strictly for this compound: `N=C(N)c1ccc2[nH]c(-c3cc(CCC(=O)O)cc(Br)c3O)c(Cc3ccccc3)c2c1`
Resp: y

Req: Problem: For the compound `N=C(N)c1ccc2[nH]c(-c3cc(CCOP(=O)(O)O)cc(Br)c3O)c(Cc3ccccc3)c2c1` , is Ki under 0.01 µM?
Resp: y

Req: In the record for `COc1c(Br)cc(CCC(=O)O)cc1-c1[nH]c2ccc(C(=N)N)cc2c1Cc1ccccc1` , is Ki less than 0.01 µM?
Resp: n

Req: Is the reported Ki for `N=C(N)c1ccc2[nH]c(-c3cc(Br)cc(CCC(=O)O)c3)c(Cc3ccccc3)c2c1` strictly below 0.01 µM?
Resp: n
